Assay: Ca2+ titration of dye fluorescence in Ca-EGTA buffers
Type: binding
Details: 100 mM KCl, 20° C., pH 7.1-7.2; read-out: Apparent Kd for Ca^2+
ENDPOINT: Kd (nM)
# output: bare number, implied unit nM

Please give the measured Kd for this compound: Cc1ccc(N(CC(=O)O)CC(=O)O)c(OCCOc2cc(/C=C/c3ccc(C(=O)O)cc3)ccc2N(CC(=O)O)CC(=O)O)c1 [stil-1]
132

----------
Assay type: binding
Conditions: pH 7.02 in 225 mM KCl, 25 mM NaCl at 18° C.; freshly determined; read-out: apparent dissociation constant for Ca-EGTA
Protocol: Calcium and magnesium affinities of EGTA at high ionic strength were measured by titrating 125 micromole portions of EGTA (Fluka Chemical, puriss grade) with 1.00M KOH (J.T. Baker, low in carbonate). The EGTA was dissolved in 25 ml medium containing 225 mM KCl, 25 mM NaCl, and in some runs 10 mM CaCl2 or 21 mM MgCl2. […] The fifty to eighty pH readings in each titration were analyzed by the FORTRAN program SCOGS of Sayce (see reference 36). […]
ENDPOINT: Kd
For clarity, give the value followed by its unit.

Please give the measured Kd for this compound: O=C(O)CN(CCOCCOCCN(CC(=O)O)CC(=O)O)CC(=O)O
490 nM

src = patent US4603209A
